Item-by-item account of WBC
# Species on record: Rattus norvegicus
# assay: Open TG-GATES - Regimen: Single
# Format: toxicity, organism-based, Sprague-Dawley
# Design: regimen Single, gender Male, age 6 weeks
# test-settings: in vivo, po, 0 mg/kg, 9 h, tissue Blood, route gavage, dose level Control

The cases that follow already have their WBC on record.
* CC(CCc1ccccc1)NCC(O)c1ccc(O)c(C(N)=O)c1 (configuration not stated) | 96.4 x10_2/uL
* CC(C)Cc1ccc(C(C)C(=O)O)cc1 (configuration not stated) | 76.6 x10_2/uL
* CCN(CC)N=O | 92.6 x10_2/uL
* CC[C@@H](CO)NCCN[C@@H](CC)CO | 93.6 x10_2/uL
* CC(=O)N1CCN(c2ccc(OCC3COC(Cn4ccnc4)(c4ccc(Cl)cc4Cl)O3)cc2)CC1 (configuration not stated) | 69.1 x10_2/uL
* O=C(O)COc1nn(Cc2ccccc2)c2ccccc12 | 98.1 x10_2/uL

Here's the next entry for you.
For the compound `CC(=O)Nc1ccc2c(c1)Cc1ccccc1-2` , give its measured WBC value.
86.2 x10_2/uL

---

# Organism: Rattus norvegicus
# assay: Open TG-GATES - Regimen: Single
# Assay type: toxicity, organism-based, Sprague-Dawley
# Parameters: regimen Single, gender Male, age 6 weeks
# test-settings: in vivo, po, 0 mg/kg, 24 h, tissue Blood, route gavage, dose level Control
readout-label: Eos (%)
Unit % implied. Number only.

- CC(=O)N1CCN(c2ccc(OCC3COC(Cn4ccnc4)(c4ccc(Cl)cc4Cl)O3)cc2)CC1 (configuration not stated): 0.8

For the molecule `CC(=O)Nc1ccc2c(c1)Cc1ccccc1-2` , give its measured Eos value.
0.8

For the molecule CC(CCc1ccccc1)NCC(O)c1ccc(O)c(C(N)=O)c1 (configuration not stated) , give its measured Eos value.
1

For the molecule CC(C)Cc1ccc(C(C)C(=O)O)cc1 (configuration not stated) , give its measured Eos value.
1.2

For the molecule `CCN(CC)N=O` , give its measured Eos value.
1.2

For the molecule `O=C(O)COc1nn(Cc2ccccc2)c2ccccc12` , give its measured Eos value.
1

For the molecule `CC[C@@H](CO)NCCN[C@@H](CC)CO` , give its measured Eos value.
0.8

---

# Species on record: Rattus norvegicus
# assay: Open TG-GATES - Regimen: Daily Repeat
# Assay type: toxicity, organism-based, Sprague-Dawley
# Design: regimen Daily Repeat, gender Male, age 6 weeks
# test-settings: in vivo, po, 0 mg/kg, […], tissue Blood, route gavage, dose level Control, time 28 day
readout-label: Bas (%)
Unit % implied. Number only.

The cases that follow already have their Bas on record.
* CC(=O)Nc1ccc2c(c1)Cc1ccccc1-2 | 0.8
* CC(CCc1ccccc1)NCC(O)c1ccc(O)c(C(N)=O)c1 (stereo not drawn) | 0.6
* CC(N)=O [ACETAMIDE] | 0
* O=C(O)COc1nn(Cc2ccccc2)c2ccccc12 | 0
* CCN(CC)N=O | 0.8
* CC(C)Cc1ccc(C(C)C(=O)O)cc1 (stereo not drawn) | 0

For the compound `CC[C@@H](CO)NCCN[C@@H](CC)CO` , give its measured Bas value.
0

For the compound CC(=O)N1CCN(c2ccc(OCC3COC(Cn4ccnc4)(c4ccc(Cl)cc4Cl)O3)cc2)CC1 (stereo not drawn) , give its measured Bas value.
0

---

# Species on record: Rattus norvegicus
# assay: Open TG-GATES - Regimen: Daily Repeat
# Format: toxicity, organism-based, Sprague-Dawley
# Design: regimen Daily Repeat, gender Male, age 6 weeks
# test-settings: in vivo, po, 0 mg/kg, […], tissue Plasma, route gavage, dose level Control, time 28 day
readout-label: CRE (mg/dL)
Unit mg/dL implied. Number only.

The cases that follow already have their CRE on record.
* CC[C@@H](CO)NCCN[C@@H](CC)CO | 0.3
* CCN(CC)N=O | 0.5
* CC(N)=O [ACETAMIDE] | 0.2
* CC(=O)N1CCN(c2ccc(OCC3COC(Cn4ccnc4)(c4ccc(Cl)cc4Cl)O3)cc2)CC1 (stereo not drawn) | 0.2
* CC(=O)Nc1ccc2c(c1)Cc1ccccc1-2 | 0.4

For the compound CC(C)Cc1ccc(C(C)C(=O)O)cc1 (stereo not drawn) , give its measured CRE value.
0.2

For the compound `O=C(O)COc1nn(Cc2ccccc2)c2ccccc12` , give its measured CRE value.
0.6

For the compound CC(CCc1ccccc1)NCC(O)c1ccc(O)c(C(N)=O)c1 (stereo not drawn) , give its measured CRE value.
0.2

---

Item-by-item account of A/G
# Species: Rattus norvegicus
# assay: Open TG-GATES - Regimen: Single
# Type: toxicity, organism-based, Sprague-Dawley
# Design: regimen Single, gender Male, age 6 weeks
# test-settings: in vivo, po, 0 mg/kg, 9 h, tissue Plasma, route gavage, dose level Control
// print number alone

The cases that follow already have their A/G on record.
- CC(=O)Nc1ccc2c(c1)Cc1ccccc1-2 [2-ACETYLAMINOFLUORENE]: 1.5
- CC[C@@H](CO)NCCN[C@@H](CC)CO [ETHAMBUTOL]: 1.2
- O=C(O)COc1nn(Cc2ccccc2)c2ccccc12 [BENDAZAC]: 2.1

Here's the next entry for you.
For the molecule CCN(CC)N=O [N-NITROSODIETHYLAMINE] , give its measured A/G value.
1.6

---

# Organism: Rattus norvegicus
# assay: Open TG-GATES - Regimen: Daily Repeat
# Assay type: toxicity, organism-based, Sprague-Dawley
# Parameters: regimen Daily Repeat, gender Male, age 6 weeks
# test-settings: in vivo, po, 0 mg/kg, […], tissue Plasma, route gavage, dose level Control, time 7 day
readout-label: A/G
// print number alone

The cases that follow already have their A/G on record.
• O=C(O)COc1nn(Cc2ccccc2)c2ccccc12 = 2
• CCN(CC)N=O = 1.5
• CC(N)=O [ACETAMIDE] = 0.9
• CC[C@@H](CO)NCCN[C@@H](CC)CO = 1.1

Here's the next entry for you.
For the molecule `CC(=O)Nc1ccc2c(c1)Cc1ccccc1-2` , give its measured A/G value.
1.4

---

# Organism: Rattus norvegicus
# assay: Open TG-GATES - Regimen: Daily Repeat
# Type: toxicity, organism-based, Sprague-Dawley
# Design: regimen Daily Repeat, gender Male, age 6 weeks
# test-settings: in vivo, po, 0 mg/kg, […], tissue Plasma, route gavage, dose level Control, time 14 day
readout-label: Cl (meq/L)
Unit meq/L implied. Number only.

The cases that follow already have their Cl on record.
- CC[C@@H](CO)NCCN[C@@H](CC)CO: 106.4
- O=C(O)COc1nn(Cc2ccccc2)c2ccccc12: 105.4
- CCN(CC)N=O: 101.6
- CC(=O)Nc1ccc2c(c1)Cc1ccccc1-2: 103.4
- CC(=O)N1CCN(c2ccc(OCC3COC(Cn4ccnc4)(c4ccc(Cl)cc4Cl)O3)cc2)CC1 (stereo unspecified): 107.2

For the compound CC(N)=O [ACETAMIDE] , give its measured Cl value.
103.5

---

Item-by-item account of IP
# Organism: Rattus norvegicus
# assay: Open TG-GATES - Regimen: Single
# Format: toxicity, organism-based, Sprague-Dawley
# Set-up: regimen Single, gender Male, age 6 weeks
# test-settings: in vivo, po, 0 mg/kg, 24 h, tissue Plasma, route gavage, dose level Control
Please state the value followed by its unit.

The cases that follow already have their IP on record.
- CCN(CC)N=O: 9.5 mg/dL
- O=C(O)COc1nn(Cc2ccccc2)c2ccccc12: 7.9 mg/dL
- CC(=O)Nc1ccc2c(c1)Cc1ccccc1-2: 8.3 mg/dL
- CC[C@@H](CO)NCCN[C@@H](CC)CO: 8.1 mg/dL
- CC(=O)N1CCN(c2ccc(OCC3COC(Cn4ccnc4)(c4ccc(Cl)cc4Cl)O3)cc2)CC1 (stereo unspecified): 6.5 mg/dL

For the molecule CC(C)Cc1ccc(C(C)C(=O)O)cc1 (stereo unspecified) , give its measured IP value.
7.3 mg/dL

---

# Organism: Rattus norvegicus
# assay: Open TG-GATES - Regimen: Daily Repeat
# Type: toxicity, organism-based, Sprague-Dawley
# Set-up: regimen Daily Repeat, gender Male, age 6 weeks
# test-settings: in vivo, po, 0 mg/kg, 72 h, tissue Blood, route gavage, dose level Control, time 3 day
readout-label: Lym (%)
Unit % implied. Number only.

• CC(CCc1ccccc1)NCC(O)c1ccc(O)c(C(N)=O)c1 (stereo not drawn) = 75.4
• O=C(O)COc1nn(Cc2ccccc2)c2ccccc12 = 77.2
• CCN(CC)N=O = 77.6

For the compound CC(C)Cc1ccc(C(C)C(=O)O)cc1 (stereo not drawn) , give its measured Lym value.
79.8

For the compound `CC[C@@H](CO)NCCN[C@@H](CC)CO` , give its measured Lym value.
80.6

For the compound `CC(=O)Nc1ccc2c(c1)Cc1ccccc1-2` , give its measured Lym value.
82.2

For the compound CC(=O)N1CCN(c2ccc(OCC3COC(Cn4ccnc4)(c4ccc(Cl)cc4Cl)O3)cc2)CC1 (stereo not drawn) , give its measured Lym value.
82

For the compound CC(N)=O [ACETAMIDE] , give its measured Lym value.
71.4
